The following are reported pIC50 results, target or system HSV-1 protease (Human herpesvirus 1, UniProt P10210).
Units for pIC50: none; it is -log10 of a concentration expressed in mol/L.

Recorded results for 4 molecules are shown here.
Cc1c(NC(=O)OC(C)(C)C)ccc2nc(NC3(C(=O)N(C)Cc4cccnc4)CCCCC3)oc(=O)c12	5.92
Cc1c(NC(=O)CCNC(=O)OC(C)(C)C)ccc2nc(NC(C)(C)C(=O)N(C)CCc3ccccn3)oc(=O)c12	5.96
Cc1c(NC(=O)OC(C)(C)C)ccc2nc(N[C@@H](Cc3ccccc3)C(=O)N(C)CCc3ccccn3)oc(=O)c12	5.82
Cc1c(NC(=O)OC(C)(C)C)ccc2nc(N(C)[C@@H](Cc3ccccc3)C(=O)NCc3ccncc3)oc(=O)c12	6.05

Now for another entry.
// Cc1c(NC(=O)OC(C)(C)C)ccc2nc(N[C@@H](Cc3ccccc3)C(=O)N(C)CCc3ccncc3)oc(=O)c12 : pIC50 value = 6.05

* * *

system: Vero cells; test: Cytotoxicity, Vero cells, Alamar Blue; type: cell-based; conditions: 25 μM, 20 hours
Each entry below carries its recorded Cell viability (% of control).
Output spec: scalar in %, unitless text.

Cc1c(NC(=O)OC(C)(C)C)ccc2nc(N[C@@H](CCc3ccccc3)C(=O)N(C)CCc3cccnc3)oc(=O)c12	48.0
CC(=O)OC(C(=O)Nc1ccc2nc(NC(C)(C)C(=O)N(C)CCc3ccccn3)oc(=O)c2c1C)c1ccccc1 (stereo not drawn)	93.9
Cc1c(NC(=O)OC(C)(C)C)ccc2nc(N3CCC[C@H]3C(=O)N(C)CCc3ccccn3)oc(=O)c12	92.3

Consider Cc1c(NC(=O)OC(C)(C)C)ccc2nc(N[C@@H](CC3CCCCC3)C(=O)N(C)CCc3cccnc3)oc(=O)c12 . Its measured Cell viability (% of control) is 49.5

Memo: CCCCCc1ccc(C(=O)Nc2ccc3nc(NC(C)(C)C(=O)N(C)CCc4ccccn4)oc(=O)c3c2C)cc1 , reported Cell viability (% of control): 29.0

Reported Cell viability (% of control) of Cc1c(NC(=O)OC(C)(C)C)ccc2nc(N(C)[C@@H](Cc3ccccc3)C(=O)N(C)CCc3cccnc3)oc(=O)c12 : 37.6

* * *

experiment: Human plasma stability; format: in vitro ADME
property: half-life at 19.6 μM (h)
Respond with the bare value in h.

# half-life at 19.6 μM (compound: Cc1c(NC(=O)OC(C)(C)C)ccc2nc(N[C@@H](C)C(=O)N(C)Cc3ccccn3)oc(=O)c12 ) is 8.85

Cc1c(NC(=O)OC(C)(C)C)ccc2nc(N[C@@H](Cc3ccccc3)C(=O)N(C)CCc3ccccn3)oc(=O)c12 has a reported half-life at 19.6 μM of 1.78

Value of half-life at 19.6 μM reported for the compound COc1ccc(CC(Nc2nc3ccc(NC(=O)OC(C)(C)C)c(C)c3c(=O)o2)C(=O)NCc2ccccn2)cc1 (stereo not shown) [compound 230, reference compound] is 0.45

* * *

test system: Vero cells; assay: Cytotoxicity, Vero cells, Alamar Blue; format: cell-based; conditions: 25 μM, 20 hours
property: Cell viability (% of control) (%)
Answer format: numeric, % implied, no suffix.

Cc1cccc(C(=O)Nc2ccc3nc(NC(C)(C)C(=O)N(C)CCc4ccccn4)oc(=O)c3c2C)c1	70.5

Entry Cc1c(NC(=O)c2ccccc2F)ccc2nc(NC(C)(C)C(=O)N(C)CCc3ccccn3)oc(=O)c12 ; Cell viability (% of control) = 70.2

Entry under test: Cc1c(NC(=O)c2ccco2)ccc2nc(NC(C)(C)C(=O)N(C)CCc3ccccn3)oc(=O)c12 . Its Cell viability (% of control) was 90.7

Short answer for Cc1c(NC(=O)OC(C)(C)C)ccc2nc(NC(C)(C)C(=O)NCc3ccncc3)oc(=O)c12 : Cell viability (% of control) was 102.0
